- experimental-system: RyR2 (Homo sapiens, UniProt Q92736)
- Sequence (Q92736 whole entry): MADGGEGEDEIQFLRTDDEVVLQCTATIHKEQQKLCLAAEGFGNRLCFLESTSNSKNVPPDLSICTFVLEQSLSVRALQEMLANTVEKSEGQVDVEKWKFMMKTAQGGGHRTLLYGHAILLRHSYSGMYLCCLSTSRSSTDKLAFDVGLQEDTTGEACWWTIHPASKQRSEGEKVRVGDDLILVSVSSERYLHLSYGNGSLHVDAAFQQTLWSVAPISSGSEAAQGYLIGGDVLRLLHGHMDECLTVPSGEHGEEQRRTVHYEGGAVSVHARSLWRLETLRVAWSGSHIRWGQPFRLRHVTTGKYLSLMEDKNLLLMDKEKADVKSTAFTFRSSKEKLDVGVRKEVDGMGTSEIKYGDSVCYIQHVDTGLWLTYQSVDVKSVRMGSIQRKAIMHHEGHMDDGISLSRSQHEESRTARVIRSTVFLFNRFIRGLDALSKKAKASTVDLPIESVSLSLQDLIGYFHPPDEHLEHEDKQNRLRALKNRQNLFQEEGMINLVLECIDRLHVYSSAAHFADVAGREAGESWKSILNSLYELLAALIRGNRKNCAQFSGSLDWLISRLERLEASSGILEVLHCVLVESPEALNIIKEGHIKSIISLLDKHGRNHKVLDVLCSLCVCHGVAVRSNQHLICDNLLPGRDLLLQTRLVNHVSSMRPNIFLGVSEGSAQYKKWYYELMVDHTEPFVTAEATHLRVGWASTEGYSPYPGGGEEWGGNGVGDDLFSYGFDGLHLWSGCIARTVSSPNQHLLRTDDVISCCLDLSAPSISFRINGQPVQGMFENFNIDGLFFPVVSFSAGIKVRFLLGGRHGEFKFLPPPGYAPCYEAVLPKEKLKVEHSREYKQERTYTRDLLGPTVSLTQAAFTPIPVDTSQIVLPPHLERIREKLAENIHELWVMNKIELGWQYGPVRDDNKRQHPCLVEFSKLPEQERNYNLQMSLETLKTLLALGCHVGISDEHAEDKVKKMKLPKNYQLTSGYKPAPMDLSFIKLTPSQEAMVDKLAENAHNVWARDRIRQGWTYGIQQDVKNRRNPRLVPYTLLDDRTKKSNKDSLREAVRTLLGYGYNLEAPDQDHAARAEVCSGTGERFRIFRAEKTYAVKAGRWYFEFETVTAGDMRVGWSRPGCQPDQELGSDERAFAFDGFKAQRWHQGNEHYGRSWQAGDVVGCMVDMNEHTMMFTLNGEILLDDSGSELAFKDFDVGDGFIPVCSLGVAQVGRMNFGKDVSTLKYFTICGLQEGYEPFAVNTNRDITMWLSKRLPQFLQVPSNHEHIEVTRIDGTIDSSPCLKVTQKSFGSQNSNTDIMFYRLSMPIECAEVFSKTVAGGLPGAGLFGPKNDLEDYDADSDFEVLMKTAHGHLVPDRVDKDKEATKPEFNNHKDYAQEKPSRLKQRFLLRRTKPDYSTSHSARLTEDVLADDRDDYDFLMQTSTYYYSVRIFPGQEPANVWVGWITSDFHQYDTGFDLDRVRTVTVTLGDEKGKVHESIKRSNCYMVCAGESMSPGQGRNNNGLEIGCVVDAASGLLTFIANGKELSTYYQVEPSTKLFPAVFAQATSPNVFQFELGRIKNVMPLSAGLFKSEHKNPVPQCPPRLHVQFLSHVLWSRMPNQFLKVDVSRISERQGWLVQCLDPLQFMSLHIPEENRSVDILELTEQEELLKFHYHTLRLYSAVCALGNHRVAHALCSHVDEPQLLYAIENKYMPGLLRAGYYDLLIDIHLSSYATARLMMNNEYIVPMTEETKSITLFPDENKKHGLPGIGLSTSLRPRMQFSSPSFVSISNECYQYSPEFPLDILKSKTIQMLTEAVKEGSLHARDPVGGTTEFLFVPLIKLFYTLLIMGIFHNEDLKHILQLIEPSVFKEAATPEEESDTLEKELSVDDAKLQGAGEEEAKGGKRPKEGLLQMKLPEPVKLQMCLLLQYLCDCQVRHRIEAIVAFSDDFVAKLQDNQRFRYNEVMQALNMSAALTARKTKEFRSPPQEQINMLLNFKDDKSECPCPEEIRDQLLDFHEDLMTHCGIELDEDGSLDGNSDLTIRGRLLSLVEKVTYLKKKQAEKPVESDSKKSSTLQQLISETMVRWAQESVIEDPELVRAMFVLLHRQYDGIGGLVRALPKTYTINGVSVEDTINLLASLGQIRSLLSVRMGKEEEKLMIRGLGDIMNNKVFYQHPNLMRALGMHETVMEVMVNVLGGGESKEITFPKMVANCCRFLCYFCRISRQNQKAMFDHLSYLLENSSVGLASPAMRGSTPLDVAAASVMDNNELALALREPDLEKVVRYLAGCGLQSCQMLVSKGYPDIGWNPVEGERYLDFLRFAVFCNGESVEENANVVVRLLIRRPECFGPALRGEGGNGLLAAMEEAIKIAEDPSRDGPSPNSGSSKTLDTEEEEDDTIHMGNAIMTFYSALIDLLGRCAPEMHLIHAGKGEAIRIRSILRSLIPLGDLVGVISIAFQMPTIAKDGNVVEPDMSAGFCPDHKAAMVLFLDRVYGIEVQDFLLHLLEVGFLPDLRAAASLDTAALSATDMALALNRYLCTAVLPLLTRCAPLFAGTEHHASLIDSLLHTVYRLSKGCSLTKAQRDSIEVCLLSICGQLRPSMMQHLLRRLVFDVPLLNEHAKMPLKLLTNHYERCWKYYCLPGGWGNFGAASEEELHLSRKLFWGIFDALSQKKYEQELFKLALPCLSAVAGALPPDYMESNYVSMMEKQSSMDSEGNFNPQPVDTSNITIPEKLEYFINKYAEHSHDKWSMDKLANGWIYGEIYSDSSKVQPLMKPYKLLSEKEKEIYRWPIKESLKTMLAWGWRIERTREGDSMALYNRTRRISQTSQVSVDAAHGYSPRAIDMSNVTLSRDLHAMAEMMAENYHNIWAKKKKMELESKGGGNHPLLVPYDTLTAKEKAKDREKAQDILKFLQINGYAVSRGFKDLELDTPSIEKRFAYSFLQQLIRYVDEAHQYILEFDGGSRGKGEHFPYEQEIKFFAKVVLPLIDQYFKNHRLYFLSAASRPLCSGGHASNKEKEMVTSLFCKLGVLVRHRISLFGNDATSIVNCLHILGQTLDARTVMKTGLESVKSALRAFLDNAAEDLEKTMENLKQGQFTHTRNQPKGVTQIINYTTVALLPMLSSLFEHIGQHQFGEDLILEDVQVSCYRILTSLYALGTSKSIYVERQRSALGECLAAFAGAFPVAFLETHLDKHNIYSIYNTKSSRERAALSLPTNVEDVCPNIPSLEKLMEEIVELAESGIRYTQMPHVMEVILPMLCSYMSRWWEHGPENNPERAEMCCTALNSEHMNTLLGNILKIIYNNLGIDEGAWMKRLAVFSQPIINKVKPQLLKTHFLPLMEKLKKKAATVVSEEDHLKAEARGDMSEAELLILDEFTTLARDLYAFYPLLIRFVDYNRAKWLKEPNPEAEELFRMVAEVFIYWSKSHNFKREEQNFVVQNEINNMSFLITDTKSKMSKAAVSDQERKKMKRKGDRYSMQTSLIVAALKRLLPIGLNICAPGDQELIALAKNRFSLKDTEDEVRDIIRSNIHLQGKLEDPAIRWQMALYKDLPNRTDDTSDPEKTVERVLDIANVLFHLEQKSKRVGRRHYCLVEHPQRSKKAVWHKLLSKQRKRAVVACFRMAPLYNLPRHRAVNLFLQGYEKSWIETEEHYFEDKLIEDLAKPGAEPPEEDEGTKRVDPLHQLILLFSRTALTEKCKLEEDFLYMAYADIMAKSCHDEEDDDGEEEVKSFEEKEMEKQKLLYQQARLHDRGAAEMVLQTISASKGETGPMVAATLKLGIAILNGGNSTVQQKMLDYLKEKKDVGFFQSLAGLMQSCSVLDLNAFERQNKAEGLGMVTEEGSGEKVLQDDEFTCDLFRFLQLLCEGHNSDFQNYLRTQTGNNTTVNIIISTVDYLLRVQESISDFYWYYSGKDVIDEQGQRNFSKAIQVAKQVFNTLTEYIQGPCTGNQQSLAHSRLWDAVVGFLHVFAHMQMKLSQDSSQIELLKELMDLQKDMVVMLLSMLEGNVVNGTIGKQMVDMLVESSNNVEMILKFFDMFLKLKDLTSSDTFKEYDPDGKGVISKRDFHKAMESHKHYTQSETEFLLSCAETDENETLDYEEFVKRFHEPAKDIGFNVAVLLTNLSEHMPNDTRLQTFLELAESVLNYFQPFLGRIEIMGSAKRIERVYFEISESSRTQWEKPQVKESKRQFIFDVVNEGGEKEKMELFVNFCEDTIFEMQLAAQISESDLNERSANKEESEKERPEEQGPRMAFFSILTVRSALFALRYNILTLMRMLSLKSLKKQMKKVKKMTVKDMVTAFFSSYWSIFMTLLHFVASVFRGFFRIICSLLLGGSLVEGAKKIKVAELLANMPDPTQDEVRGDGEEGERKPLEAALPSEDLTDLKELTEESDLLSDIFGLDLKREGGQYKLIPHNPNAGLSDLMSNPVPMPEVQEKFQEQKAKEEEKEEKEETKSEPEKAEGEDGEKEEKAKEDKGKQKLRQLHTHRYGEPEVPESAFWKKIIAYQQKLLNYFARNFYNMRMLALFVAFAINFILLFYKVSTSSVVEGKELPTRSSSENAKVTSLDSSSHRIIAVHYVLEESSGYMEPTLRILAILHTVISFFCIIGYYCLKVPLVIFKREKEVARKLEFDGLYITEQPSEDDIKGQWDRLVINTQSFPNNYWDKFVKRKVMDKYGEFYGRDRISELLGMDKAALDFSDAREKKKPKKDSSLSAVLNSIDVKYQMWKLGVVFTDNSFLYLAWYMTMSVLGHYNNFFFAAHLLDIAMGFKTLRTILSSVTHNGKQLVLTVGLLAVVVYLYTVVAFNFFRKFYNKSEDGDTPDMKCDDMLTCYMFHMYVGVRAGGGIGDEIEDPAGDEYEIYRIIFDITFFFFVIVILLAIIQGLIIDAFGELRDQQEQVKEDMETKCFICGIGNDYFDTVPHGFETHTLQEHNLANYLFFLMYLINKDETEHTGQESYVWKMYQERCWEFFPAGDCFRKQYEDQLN
- Sequence (P68106 whole entry, further chain): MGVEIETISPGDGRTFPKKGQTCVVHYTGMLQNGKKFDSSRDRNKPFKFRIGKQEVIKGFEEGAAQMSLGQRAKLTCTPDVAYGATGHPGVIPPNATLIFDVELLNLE
- assay-method-text: biochemical
measurement-label: EC50 (nM)
Numbers only, in nM.

// molecule O=C(N1CCNCC1)N1CCSc2ccc(C(F)(F)F)cc2C1 [Compound 2] , assay RyR2 (Homo sapiens, UniProt Q92736), EC50 value: 100

* * *

- assay-method-text: Pharmacokinetics by intravenous (IV) dosing (tail vein)
- Format: in vivo, rat
- run-conditions: rat plasma, IV bolus 2 mg/kg
measurement-label: AUC(0-inf)
Note: state the figure and append the unit.

Value of AUC(0-inf) reported for the compound O=C(N1CCNCC1)N1CCSc2ccc(C(F)(F)F)cc2C1 [Compound 2] is 0.736 µg·h/mL
